- target.or.system: T1, human TL1A extracellular domain with N-terminal HIS and FLAG tag (human, UniProt O95150 72-251)
- T1 construct: whole entry named. ~70 kDa fraction purified by gel filtration
- T1 sequence: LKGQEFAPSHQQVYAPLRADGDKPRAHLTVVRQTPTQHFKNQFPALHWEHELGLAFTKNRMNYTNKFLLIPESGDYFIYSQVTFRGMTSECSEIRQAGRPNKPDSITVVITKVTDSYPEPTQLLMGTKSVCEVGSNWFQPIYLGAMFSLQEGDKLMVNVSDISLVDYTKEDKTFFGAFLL
- test.summary: SPR run 3; supernatant on Protein A; TL1A 10 ug/mL; timepoint 590
reported.property: TL1A Binding Level (Late) (RU)
A number alone suffices; assume RU.

Examples with answers:
320-308 (antibody, human IgG1, name in Kabat numbering, V domains shown, human IgG1, lambda) VH: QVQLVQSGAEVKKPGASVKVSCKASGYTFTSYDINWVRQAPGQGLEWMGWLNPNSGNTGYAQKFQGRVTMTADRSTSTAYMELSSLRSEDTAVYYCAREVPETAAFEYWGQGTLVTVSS VL: QSVLTQPPSVSGAPGQRVTISCTSSSSDIGAGLGVWWYQQLPGTAPKLLIEGYYNRPSGVPDRFSGSKSGTSASLTITGLLPEDEGDYYCQSYDGTLSALFGGGTKLTVLG ... 73
320-303 (antibody, human IgG1, name in Kabat numbering, V domains shown, human IgG1, lambda) VH: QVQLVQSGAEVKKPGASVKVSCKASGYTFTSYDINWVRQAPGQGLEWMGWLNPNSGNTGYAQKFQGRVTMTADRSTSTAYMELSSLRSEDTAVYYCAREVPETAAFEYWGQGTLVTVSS VL: QSVLTQPPSVSGAPGQRVTISCTSSSSDIGAGLGVSWYQQLPGTAPKLLIEGYYNRPSGVPDRFSGSKSGTSASLTITGLLPEDEGDYYCQSYDGTLSALFGGGTKLTVLG ... 32
320-271 (antibody, human IgG1, name in Kabat numbering, V domains shown, human IgG1, lambda) VH: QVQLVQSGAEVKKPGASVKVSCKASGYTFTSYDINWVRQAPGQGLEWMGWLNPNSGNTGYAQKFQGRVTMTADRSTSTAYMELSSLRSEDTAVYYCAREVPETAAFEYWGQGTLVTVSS VL: QSVLTQPPSVSGAPGQRVTISCTSSSSDIGAHLGVHWYQQLPGTAPKLLIEGYYNRPSGVPDRFSGSKSGTSASLTITGLLPEDEGDYYCQSYDGTLSALFGGGTKLTVLG ... 30
320-267 (antibody, human IgG1, V domains shown, human IgG1, lambda) VH: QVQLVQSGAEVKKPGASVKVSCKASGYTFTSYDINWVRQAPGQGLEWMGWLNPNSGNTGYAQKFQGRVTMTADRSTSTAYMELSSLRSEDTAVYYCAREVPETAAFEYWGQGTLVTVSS VL: QSVLTQPPSVSGAPGQRVTISCTSSSSDIGAALGVHWYQQLPGTAPKLLIEGYYNRPSGVPDRFSGSKSGTSASLTITGLLPEDEGDYYCQSYDGTLSALFGGGTKLTVLG ... 297

QUERY: Which TL1A Binding Level (Late) reading was recorded for the binder 320-281 (antibody, human IgG1, name in Kabat numbering, V domains shown, human IgG1, lambda) VH: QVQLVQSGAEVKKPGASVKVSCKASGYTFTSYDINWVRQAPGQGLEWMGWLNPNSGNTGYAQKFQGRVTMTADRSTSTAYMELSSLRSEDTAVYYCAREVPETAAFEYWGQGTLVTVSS VL: QSVLTQPPSVSGAPGQRVTISCTSSSSDIGAGKGVHWYQQLPGTAPKLLIEGYYNRPSGVPDRFSGSKSGTSASLTITGLLPEDEGDYYCQSYDGTLSALFGGGTKLTVLG ?
RESULT: 6

QUERY: Which TL1A Binding Level (Late) reading was recorded for the binder 320-294 (antibody, human IgG1, name in Kabat numbering, V domains shown, human IgG1, lambda) VH: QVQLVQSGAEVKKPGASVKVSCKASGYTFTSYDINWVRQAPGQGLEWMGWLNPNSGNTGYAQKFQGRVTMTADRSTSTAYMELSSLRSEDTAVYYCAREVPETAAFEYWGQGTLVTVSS VL: QSVLTQPPSVSGAPGQRVTISCTSSSSDIGAGLGSHWYQQLPGTAPKLLIEGYYNRPSGVPDRFSGSKSGTSASLTITGLLPEDEGDYYCQSYDGTLSALFGGGTKLTVLG ?
RESULT: 61

QUERY: Which TL1A Binding Level (Late) reading was recorded for the binder 320-259 (antibody, human IgG1, name in Kabat numbering, V domains shown, human IgG1, lambda) VH: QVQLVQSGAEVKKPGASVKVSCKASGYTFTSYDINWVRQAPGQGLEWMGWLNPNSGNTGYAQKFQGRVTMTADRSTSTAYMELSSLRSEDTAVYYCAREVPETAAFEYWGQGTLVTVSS VL: QSVLTQPPSVSGAPGQRVTISCTSSSSDIGSGLGVHWYQQLPGTAPKLLIEGYYNRPSGVPDRFSGSKSGTSASLTITGLLPEDEGDYYCQSYDGTLSALFGGGTKLTVLG ?
RESULT: 179

QUERY: Which TL1A Binding Level (Late) reading was recorded for the binder 320-257 (antibody, human IgG1, name in Kabat numbering, V domains shown, human IgG1, lambda) VH: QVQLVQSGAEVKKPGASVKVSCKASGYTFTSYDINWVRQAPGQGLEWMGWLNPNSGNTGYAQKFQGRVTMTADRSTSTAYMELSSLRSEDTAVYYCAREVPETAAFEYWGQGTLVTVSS VL: QSVLTQPPSVSGAPGQRVTISCTSSSSDIWAGLGVHWYQQLPGTAPKLLIEGYYNRPSGVPDRFSGSKSGTSASLTITGLLPEDEGDYYCQSYDGTLSALFGGGTKLTVLG ?
RESULT: 18

QUERY: Which TL1A Binding Level (Late) reading was recorded for the binder 320-298 (antibody, human IgG1, name in Kabat numbering, V domains shown, human IgG1, lambda) VH: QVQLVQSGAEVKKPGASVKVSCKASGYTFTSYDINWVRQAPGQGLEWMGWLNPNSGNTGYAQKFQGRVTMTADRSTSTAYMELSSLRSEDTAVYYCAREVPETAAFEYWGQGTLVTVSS VL: QSVLTQPPSVSGAPGQRVTISCTSSSSDIGAGLGKHWYQQLPGTAPKLLIEGYYNRPSGVPDRFSGSKSGTSASLTITGLLPEDEGDYYCQSYDGTLSALFGGGTKLTVLG ?
RESULT: 100

QUERY: Which TL1A Binding Level (Late) reading was recorded for the binder 320-295 (antibody, human IgG1, name in Kabat numbering, V domains shown, human IgG1, lambda) VH: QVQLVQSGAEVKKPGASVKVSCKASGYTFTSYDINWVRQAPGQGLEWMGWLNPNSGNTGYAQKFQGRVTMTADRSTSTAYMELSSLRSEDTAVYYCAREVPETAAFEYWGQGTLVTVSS VL: QSVLTQPPSVSGAPGQRVTISCTSSSSDIGAGLGQHWYQQLPGTAPKLLIEGYYNRPSGVPDRFSGSKSGTSASLTITGLLPEDEGDYYCQSYDGTLSALFGGGTKLTVLG ?
RESULT: 94

QUERY: Which TL1A Binding Level (Late) reading was recorded for the binder 320-297 (antibody, human IgG1, name in Kabat numbering, V domains shown, human IgG1, lambda) VH: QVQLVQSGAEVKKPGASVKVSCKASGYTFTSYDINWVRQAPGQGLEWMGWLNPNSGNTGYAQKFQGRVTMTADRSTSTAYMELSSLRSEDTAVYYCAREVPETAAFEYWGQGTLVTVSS VL: QSVLTQPPSVSGAPGQRVTISCTSSSSDIGAGLGHHWYQQLPGTAPKLLIEGYYNRPSGVPDRFSGSKSGTSASLTITGLLPEDEGDYYCQSYDGTLSALFGGGTKLTVLG ?
RESULT: 77

Each recorded value in this set is attributed to patent US20170081400A1.
